Target: Phospholipase A2 (Homo sapiens)
Test: human phospholipase A2 activity blockers – biochemical, single concentration, uHTS hits, counter-screen for ATG4B inhibitor project (AID 588402)
Details: purified PLA2, NBD-C6-HPC fluorescence, 45 min; at 8.33 µM
Hit rate of the full screen: of about 1,600 compounds, about 1,100 (69%) were called active. Rule as the data show it: active = inhibition above about 50%; inactive = the rest. So high a share suggests a set chosen from earlier hits. The list is a sample of the results.
Entry note: the call must match one of active, inactive

Look over these answered cases.
Cc1ccc(-n2c(SCC(=O)N/N=C/C=C/c3ccccc3[N+](=O)[O-])nc3ccccc3c2=O)cc1 ... inactive
CC1(OC(=O)C2CCCC2)C(=O)C=C2C=C(c3ccc(C#N)cc3)OC=C2C1=O (stereo not given) ... active
COc1cccc(/C=N/Nc2ccc(S(=O)(=O)Nc3ccccc3C(=O)O)cc2[N+](=O)[O-])c1O ... active
FC(F)(F)c1cccc(NC(=S)Nc2cccc(Cl)c2)c1 ... active
CCOc1ccc(-n2c(SC(C)C(=O)OC)nc3c(c2=O)SCC3)cc1 (stereo not given) ... active
CCOC(=O)C(C)Sc1nc2ccccc2c(=O)n1CC1CCCCC1 (stereo not given) ... inactive
CCOC(=O)c1c(-c2ccccc2)oc2cc(Br)c(O)c(C=O)c12 ... inactive
CCCc1nc2c(c(=O)c3ccccc3n2C)c(=O)n1C1CCCCCC1 ... inactive
Fc1cccc(Cl)c1CSc1ccc(-c2ccco2)nn1 ... inactive

Turning now to a further record.
For CC(C)c1nc(SCC(=O)Nc2cccc(C(=O)O)c2)c2c3c(sc2n1)CCCC3 , which call appears in the assay record? active

###

Molecular target: Phospholipase A2 (Homo sapiens) (UniProt P04054)
Sequence (P04054 whole entry, looked up): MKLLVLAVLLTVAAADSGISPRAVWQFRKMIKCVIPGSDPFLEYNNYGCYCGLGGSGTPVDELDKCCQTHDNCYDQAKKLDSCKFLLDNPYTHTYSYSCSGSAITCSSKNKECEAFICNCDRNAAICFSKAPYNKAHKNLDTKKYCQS
Test: human phospholipase A2 activity blockers – biochemical, single concentration, uHTS hits, counter-screen for ATG4B inhibitor project (AID 588402)
Conditions: purified PLA2, NBD-C6-HPC fluorescence, 45 min; at 8.33 µM; hits give high values
Out of some 1,600 compounds screened, about 1,100 (69%) were called active. So high a share suggests a set chosen from earlier hits. Not all results are given here.
# Lookup of reported inhibition keyed by entry
Number in %, nothing else.

Some solved cases for reference:
CCOC(=O)c1c(C)[nH]c2c1-c1ccccc1C(=O)C2=O ... -20.8
CCc1nc(N2CCN(C(C)=O)CC2)c2c3c(sc2n1)CCCC3 ... 52.4
CC(C)(C)C1CCc2c(sc3nc(SCC(N)=O)nc(N)c23)C1 (stereo unspecified) ... 47.6
O=C(C(=O)N1CCc2ccccc2C1)c1c[nH]c2ccccc12 ... 71
Cc1ccc(-c2cc(C(=O)N3CCc4ccccc4C3)no2)cc1 ... 43.8

// fetch inhibition for Cc1nc(SCC(=O)N2CCc3ccccc3C2)c2c(C)c(C)sc2n1 ; system: Phospholipase A2 (Homo sapiens) (UniProt P04054) 76.5

###

Form field: inhibition (one value per entry).
Target: Phospholipase A2 (Homo sapiens)
Experiment: human phospholipase A2 activity blockers – biochemical, single concentration, uHTS hits, counter-screen for ATG4B inhibitor project (AID 588402)
Details: purified PLA2, NBD-C6-HPC fluorescence, 45 min; at 8.33 µM; hits give high values
About 1,100 (69%) of roughly 1,600 compounds were called active. The set was probably picked from earlier hits. Only a sample is shown.
Answer with a number only, understood to be in %.

Worked set:
Cc1ccc(NC(=O)CC2S/C(=N/N=C3\CCCc4ccccc43)NC2=O)cc1 (configuration not stated) ... 60
COc1cccc(Cn2cc(/C=N/NC(=O)c3cc(O)cc(O)c3)c3ccccc32)c1 ... 76.6
Cc1ccc(Nc2cc(=O)n(C3CCCCC3)c(=O)[nH]2)cc1C ... 2.78
Fc1ccc2[nH]c3c(N4CCN(Cc5ccc6c(c5)OCO6)CC4)ncnc3c2c1 ... 48.4
COC(=O)N/N=C/c1cn(CCCOc2ccc(C)cc2)c2ccccc12 ... 43

Find the measured inhibition of O=C(Nc1nnc(SCc2ccccc2Cl)s1)c1cccc([N+](=O)[O-])c1 and report it. 57.6

// Input: COc1ccc(/C=C2/CCCc3ccccc3C2=O)cc1 . Output its inhibition only. 53.3

Determine its reported inhibition: Cc1cccc(NC(=S)Nc2ccc(Cl)c(Cl)c2)c1 60.1

Could you please provide reported inhibition for COc1ccc(/C=C2\CCc3ccccc3C2=O)c(OC)c1OC ? Thanks! 23.1

Supply inhibition value. Item: COc1cccc(NC(=O)NCc2ccc(F)cc2)c1 52.3

Specify reported inhibition for the compound shown: FC(F)(F)Oc1ccc(NC(=S)NCc2ccccc2)cc1 47.2

Return inhibition (reported value) for this compound: COC(=O)c1c(NC(=O)COC(=O)[C@@H](NS(=O)(=O)c2ccccc2)C(C)C)sc2c1CCC2 81.7

Report inhibition for Cc1cccc(NC(=S)NCCc2ccc(Cl)cc2)c1C 57.9

Identify measured inhibition associated with Cc1nc2ccccc2c(-c2ccccc2)c1C(=O)c1ccccc1 81.3

###

Target: Phospholipase A2 (Homo sapiens) (UniProt P04054)
Experiment: human phospholipase A2 activity blockers – biochemical, single concentration, uHTS hits, counter-screen for ATG4B inhibitor project (AID 588402)
Settings: purified PLA2, NBD-C6-HPC fluorescence, 45 min; at 8.33 µM; hits give high values
Hit rate of the full screen: of about 1,600 compounds, about 1,100 (69%) were called active. So high a share suggests a set chosen from earlier hits. Not all results are given here.
Measured quantity: inhibition (%)
Give just the number in %; leave the unit off.

Cc1c(Cl)cccc1NC(=O)Nc1ccc(C(=O)N2CCCC2)cc1 ... 56.6
O=C(O)CCn1cc(/C=C/C(=O)c2ccc(Cl)cc2)c(-c2cccc(Br)c2)n1 ... 43.2
Cc1cccc(C)c1N1CCN(S(=O)(=O)N2CCCCC2)CC1 ... 54.3

Look up and state reported inhibition for CC(C)(C)c1ccc(OC2=CS(=O)(=O)c3ccccc32)cc1 55.9

Supply measured inhibition of COC(=O)c1c(NC(=O)C2CC(C)=C(C)CC2C(=O)O)sc2c1CCCCC2 (stereo unspecified) in your reply. 68

Give me measured inhibition, please, for this compound: Cc1ccc(N=C2NC(=O)/C(=C/C=C/c3ccco3)S2)cc1C 36.4

Find the measured inhibition of NC(=O)c1sc2nc3c(c(-c4ccccc4)c2c1N)CCC3 and report it. 46.6

# return recorded inhibition for input CCOc1ccc2c(c1)C(c1ccc(C)cc1)=NNC(c1ccc(C)cc1)=N2 74.7

Give inhibition for O=C(O)C(c1ccccc1)N1C(=O)/C(=C\c2ccc(-c3cccc(Cl)c3)o2)SC1=S (stereo unspecified) 45

Quote inhibition reported for O=C1C(=O)N(CC2COc3ccccc3O2)c2ccccc21 (stereo unspecified) please. 78.5

Provide one value: measured inhibition of CCc1cccc(C)c1N1C(=O)CN(Cc2ccccc2)C1=S 92.4

###

Molecular target: Phospholipase A2 (Homo sapiens)
Test: human phospholipase A2 activity blockers – biochemical, single concentration, uHTS hits, counter-screen for ATG4B inhibitor project (AID 588402)
Conditions: purified PLA2, NBD-C6-HPC fluorescence, 45 min; at 8.33 µM
In all, about 1,600 compounds went through this assay and about 1,100 (69%) were called active. No stated cut-off is given here; in the data, active means inhibition above about 50%; inactive means the rest. The set was probably picked from earlier hits. These entries were drawn from the full list.
Give your call using only these classes: 1 = active, -1 = inactive

Consider the following illustrative entries.
Clc1ccccc1CSc1nnc(-c2ccco2)c(-c2ccco2)n1 ... -1
Cc1ccc(C2=Nc3c(ccc4ccccc34)C(c3ccncc3)=NN2)cc1 ... 1
Cc1c(Cl)c([N+](=O)[O-])nn1Cc1ccc(C(=O)N/N=C\c2cc(Cl)ccc2O)o1 ... 1
COc1cnc(-c2ccccn2)nc1Oc1ccc(C(C)(C)C)cc1 ... 1

// return assay outcome for O=C(/C=C/c1ccc(Cl)cc1)N1CCN(c2ccccc2[N+](=O)[O-])CC1 1

Returns: the outcome recorded for CC(=O)c1c(C)n(-c2ccc(N(C)C)cc2)c2ccc(OCC(N)=O)cc12 in this assay. 1

// return assay outcome for CCCC1=Nc2cc(C(=O)NCc3ccco3)ccc2Sc2ccccc21 -1

Hi, do you know how Oc1c(Cl)cc(Cl)c(Cl)c1Cc1c(O)c(Cl)cc(Cl)c1Cl came out in this test? 1
